experiment summary: recombinant barcode read abundance after kanamycin selection (control-corrected) (log10(CPM+1)); higher = more efficient recombination; sequences stand for … in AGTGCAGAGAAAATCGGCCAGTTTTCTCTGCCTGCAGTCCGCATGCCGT…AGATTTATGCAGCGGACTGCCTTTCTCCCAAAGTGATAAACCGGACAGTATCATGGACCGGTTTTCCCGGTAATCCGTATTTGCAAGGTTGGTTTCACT; site = the 11-nt target;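 also: IS621 recombinase and bridge RNA in Escherichia coli cells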
Could you please classify the records by recombinant barcode read abundance (log10) using these ranges: low bin = under 0.1, mid bin = from 0.1 up to 1, high bin = 1 and over

* ATGGGTCCTTGGGTTCTAACCTGTTGCCG (site ATGGGTCCTCG) | high bin
* GGGAACCCTTGGGTTCTAACCTGTTGCTG (site GGGAACCCTAA) | low bin
* CGTAAATCTTGGGTTCTAACCTGTTGCCT (site CGGAAATCTAG) | mid bin
* GACTTTACTTGGGTTCTAACCTGTTGCCT (site GACTTTACTAG) | low bin
* GATATAGCTTGGGTTCTAACCTGTTGCGG (site GATATAGCTCC) | high bin
* AGCAATTCTTGGGTTCTAACCTGTTGCCT (site AGCAATTCTAG) | mid bin
* CACATATCTTGGGTTCTAACCTGTTGCAT (site CACATCTCTAG) | mid bin
* GGAACGACTTGGGTTCTAACCTGTTGCGT (site GGAACGACTAC) | high bin
* ACAGTGTCTTGGGTTCTAACCTGTTGCGG (site ACAATGTCTCC) | high bin
* TGGTTACCTTGGGTTCTAACCTGTTGCGG (site TGGTTACCTCC) | high bin
